Provenance of the data: patent US12473304B2

Would you kindly list IC50 for each of these compounds?
measuredOn: human PAD4 (hPAD4) (Homo sapiens (Human), UniProt Q9UM07)
Sequence (Q9UM07 whole entry): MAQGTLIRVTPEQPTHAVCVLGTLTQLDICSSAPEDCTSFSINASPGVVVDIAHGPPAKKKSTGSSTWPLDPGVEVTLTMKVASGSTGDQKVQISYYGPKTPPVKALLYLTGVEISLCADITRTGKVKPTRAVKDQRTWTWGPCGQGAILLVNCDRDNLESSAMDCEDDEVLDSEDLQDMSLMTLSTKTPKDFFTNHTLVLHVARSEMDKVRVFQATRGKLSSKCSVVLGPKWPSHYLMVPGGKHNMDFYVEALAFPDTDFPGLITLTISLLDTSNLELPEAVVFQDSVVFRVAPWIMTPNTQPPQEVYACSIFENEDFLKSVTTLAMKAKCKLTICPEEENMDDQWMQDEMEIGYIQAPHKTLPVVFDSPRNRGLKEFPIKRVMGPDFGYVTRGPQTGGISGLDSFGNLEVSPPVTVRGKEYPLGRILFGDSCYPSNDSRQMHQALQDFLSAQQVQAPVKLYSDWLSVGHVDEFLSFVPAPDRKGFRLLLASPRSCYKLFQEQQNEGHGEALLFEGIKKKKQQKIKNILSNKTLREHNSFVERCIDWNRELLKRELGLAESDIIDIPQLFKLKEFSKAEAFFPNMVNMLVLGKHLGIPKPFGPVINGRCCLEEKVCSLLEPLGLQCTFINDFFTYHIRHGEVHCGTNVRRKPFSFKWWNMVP
assaySummary: RFMS Human PAD4 Functional Assay 1
statedConditions: RFMS assay 1; 5 nM hPAD4, 250 μM BAEE substrate, 50 μM calcium, 37° C.
Quick note: give the figure in nM, leave out the unit.

Bench note, human PAD4 (hPAD4) (Homo sapiens (Human), UniProt Q9UM07): Cc1c(-c2cc3cccc(C4CCN(C(=O)C(C)(C)O)CC4)c3n2CC2CC2)nn2cc(C(=O)N3C[C@H](N)C[C@@H](F)C3)ccc12 , IC50 reads 380

The compound COc1cc(C(=O)N2C[C@H](N)C[C@@H](F)C2)cn2nc(-c3cc4cccc(OC[C@@H]5CCC(=O)N5)c4n3CC3CC3)c(C)c12 on human PAD4 (hPAD4) (Homo sapiens (Human), UniProt Q9UM07): IC50 was 160

Entry COC(=O)N(C)C1CCN(c2ccc3cc(-c4nn5cc(C(=O)N6CCC[C@@H](N)C6)cc(F)c5c4C)n(CC4CC4)c3n2)CC1 under human PAD4 (hPAD4) (Homo sapiens (Human), UniProt Q9UM07) had IC50 of 3810

human PAD4 (hPAD4) (Homo sapiens (Human), UniProt Q9UM07) data for CO[C@@H](C)C(=O)N1CCC(c2cccc3cc(-c4nn5cc(C(=O)N6C[C@H](N)C[C@@H](F)C6)ccc5c4C)n(CC4CC4)c23)CC1 ; its IC50: 140

IC50 of Cc1c(-c2cc3cccc(OCCn4cncn4)c3n2CC2CC2)nn2cc(C(=O)N3C[C@H](N)C[C@@H](F)C3)ccc12 , assay on human PAD4 (hPAD4) (Homo sapiens (Human), UniProt Q9UM07), is 30

Record for COc1cc(C(=O)N2C[C@H](N)C[C@@H](F)C2)cn2nc(-c3cc4cccc(C5CCN(C(=O)[C@H]6CC[C@H](O)CC6)CC5)c4n3CC3CC3)c(C)c12 [Example 391] under target or system human PAD4 (hPAD4) (Homo sapiens (Human), UniProt Q9UM07): IC50 reported as 10

COc1cc(C(=O)N2CCC[C@@H](N)C2)cn2nc(-c3cc4ccc(N5CC(N(C)S(C)(=O)=O)C5)cc4n3CC3CC3)c(C)c12 tested on human PAD4 (hPAD4) (Homo sapiens (Human), UniProt Q9UM07) gave IC50: 330

Observed IC50 on human PAD4 (hPAD4) (Homo sapiens (Human), UniProt Q9UM07), entry Cc1c(-c2cc3ccc(-c4ccccc4N4CCNC4=O)nc3n2CC2CC2)nn2cc(C(=O)N3CCC[C@@H](N)C3)cc(F)c12 , equals 140

Entry COc1cc(C(=O)N2CC3CCC2[C@@H]3N)cc2oc(-c3cc4ccccc4n3CC3CC3)c(C)c12 (stereo partly shown) , human PAD4 (hPAD4) (Homo sapiens (Human), UniProt Q9UM07) data, IC50 value: 442

# Cc1cc(-c2ccc3cc(-c4oc5cc(C(=O)N6CC7CCC6[C@@H]7N)ccc5c4C)n(CC4CC4)c3c2)cnc1C(N)=O (stereo partly shown) with human PAD4 (hPAD4) (Homo sapiens (Human), UniProt Q9UM07): IC50 is 81

// returns IC50 for COc1cc(C(=O)N2CCC[C@@H](N)C2)cn2nc(-c3cc4cccc(C5CN(C(=O)[C@@H](C)OC)C5)c4n3CC3CC3)c(C)c12 with human PAD4 (hPAD4) (Homo sapiens (Human), UniProt Q9UM07); value = 90

Entry Cc1c(-c2cc3ccc(-c4cccc(O)c4F)cc3n2CC2CC2)oc2cc(C(=O)N3CC4CCC3[C@@H]4N)ccc12 (stereo partly shown) ; assay system human PAD4 (hPAD4) (Homo sapiens (Human), UniProt Q9UM07); IC50 recorded at 269

Log: human PAD4 (hPAD4) (Homo sapiens (Human), UniProt Q9UM07), compound COc1cc(C(=O)N2CCC[C@@H](N)C2)cn2nc(-c3cc4ccc(-c5ccc(NS(C)(=O)=O)cc5)cc4n3CC3CC3)c(C)c12 , IC50 = 460

* * *

measuredOn: human PAD4 (hPAD4) (Homo sapiens (Human), UniProt Q9UM07)
assaySummary: RFMS Human PAD4 Functional Assay 1
statedConditions: RFMS assay 1; 5 nM hPAD4, 250 μM BAEE substrate, 50 μM calcium, 37° C.
attributeMeasured: IC50 (nM)
The reply should contain only the number, in nM.

What the record says about COc1cc(C(=O)N2C[C@H](N)C[C@@H](F)C2)cc2oc(-c3cc4ccccc4n3CC3CC3)c(C)c12 : IC50 is 487

Data point: Cc1c(-c2cc3ccc(-c4cccc5[nH]ncc45)nc3n2CC2CC2)nn2cc(C(=O)N3CCC[C@@H](N)C3)ccc12 ; IC50 = 210

Lab note: measured IC50 of COc1cc(C(=O)N2CC3CCC2[C@@H]3N)cn2nc(-c3cc4ccc(-c5ccc6c(c5)C(=O)NC6)cc4n3CC3CC3)c(C)c12 (stereo partly drawn) was 108

IC50 reading for Cc1c(-c2cc3ccnc(OCC4CNC(=O)C4)c3n2CC2CC2)nn2cc(C(=O)N3CCC[C@@H](N)C3)ccc12 (single isomer, unassigned; isomer 1) [Example 618] : 50

Entry Cc1c(-c2cc3cccc(C4CN(C(=O)C5CC(O)(C(F)(F)F)C5)C4)c3n2CC2CC2)nn2cc(C(=O)N3CCC[C@@H](N)C3)ccc12 (mixture of isomers) — recorded IC50 = 70

Given item CO[C@@H](C)C(=O)N1CCC(c2cccc3cc(-c4nn5cc(C(=O)N6CCC[C@@H](N)C6)ccc5c4C)n(CC4CC4)c23)CC1 , the value recorded as its IC50 is 550

Sure, the documented IC50 for COC1CN(c2ccc3cc(-c4nn5cc(C(=O)N6CC7CCC6[C@@H]7N)ccc5c4C)n(CC4CC4)c3n2)C1 (stereo partly drawn) is 212

Recorded result, COc1cc(C(=O)N2C[C@H](N)C[C@@H](F)C2)cn2nc(-c3cc4cccc(OC[C@H]5CCC(=O)N5)c4n3CC3CC3)c(C)c12 , IC50: 50

Looking up Cc1c(-c2cc3cccc(C4CCN(C(=O)C5CCCCO5)CC4)c3n2CC2CC2)nn2cc(C(=O)N3C[C@H](N)C[C@@H](F)C3)ccc12 (mixture of isomers) , I see its IC50 listed as 80

IC50 reported for this compound Cc1c(-c2cc3ccc(-c4ccn5c(C)nnc5c4)nc3n2CC2CC2)nn2cc(C(=O)N3CCC[C@@H](N)C3)cc(F)c12 : 80

According to the records, this compound Cc1c(-c2cc3ccc(-c4ccc5c(c4)C(=O)NC5)cc3n2CC2CC2)oc2cc(C(=O)N3CC4CCC3[C@@H]4N)ccc12 (stereo partly drawn) displays IC50 of 69

Query Cc1c(-c2cc3cccc(OCC4CNC(=O)C4)c3n2CC2CC2)nn2cc(C(=O)N3CCC[C@@H](N)C3)ccc12 (single isomer, unassigned) [Example 589] yields IC50 of 60

* * *

Exercise: for every item that follows, state its recorded IC50.
measuredOn: human PAD4 (hPAD4) (Homo sapiens (Human), UniProt Q9UM07)
assaySummary: RFMS Human PAD4 Functional Assay 1
statedConditions: RFMS assay 1; 5 nM hPAD4, 250 μM BAEE substrate, 50 μM calcium, 37° C.
I only need the number, in nM, no unit after it.

Lab note: measured IC50 of Cc1c(-c2cc3ccc(-c4cccc(O)c4F)nc3n2CC2CC2)oc2cc(C(=O)N3CC4CCC3[C@@H]4N)ccc12 (stereo partly drawn) [Example 169] was 181

IC50 reported for this compound COc1cc(C(=O)N2CCC[C@@H](N)C2)cn2nc(-c3cc4ccc(-c5cccc(CNC(C)=O)c5)cc4n3CC3CC3)c(C)c12 [Example 232] : 900

Entry Cc1c(-c2cc3ccc(C(C)(O)C(F)(F)F)nc3n2CC2CC2)nn2cc(C(=O)N3C[C@H](N)C[C@@H](F)C3)ccc12 (single isomer, unassigned) [Example 106] — recorded IC50 = 208

* * *

measuredOn: human PAD4 (hPAD4) (Homo sapiens (Human))
assaySummary: RFMS Human PAD4 Functional Assay 1
statedConditions: RFMS assay 1; 5 nM hPAD4, 250 μM BAEE substrate, 50 μM calcium, 37° C.
attributeMeasured: pIC50
pIC50 (log units): -log10 of the concentration in mol/L.

Reported pIC50 (human PAD4 (hPAD4) (Homo sapiens (Human))) for entry COC(C)(C)C(=O)N1CCC(c2cc(F)cc3cc(-c4nn5cc(C(=O)N6CCC[C@@H](N)C6)ccc5c4C)n(CC4CC4)c23)CC1 [Example 493] is 6.96

Value (pIC50, human PAD4 (hPAD4) (Homo sapiens (Human))) for record Cc1c(-c2cc3ccc(-c4ccc5cn[nH]c5c4)nc3n2CC2CC2)nn2cc(C(=O)N3C[C@H](N)C[C@@H](F)C3)ccc12 [Example 321] = 4.82

Item COc1cc(C(=O)N2CC3CCC2[C@@H]3N)cc2sc(-c3cc4ccc(-c5ccc6c(c5)C(=O)NC6)cc4n3CC3CC3)c(C)c12 (stereo partly drawn) [Example 120] ; assay system human PAD4 (hPAD4) (Homo sapiens (Human)); pIC50 reported as 6.60

pIC50 value, target or system human PAD4 (hPAD4) (Homo sapiens (Human)), for Cc1c(-c2cc3ccc(-c4ccc(F)c(O)c4)nc3n2CC2CC2)nn2cc(C(=O)N3CC4CCC3[C@@H]4N)ccc12 (stereo partly drawn) [Example 75] : 6.78

Bench note, human PAD4 (hPAD4) (Homo sapiens (Human)): entry Cc1c(-c2cc3ccc(N4CCC(C(=O)N5CCCC5)CC4)cc3n2CC2CC2)nn2cc(C(=O)N3C[C@H](N)C[C@@H](F)C3)ccc12 [Example 355] , its pIC50 = 7.70

pIC50 of COc1cc(C(=O)N2CC3CCC2[C@@H]3N)cn2nc(-c3cc4cccnc4n3CC3CC3)c(C)c12 (stereo partly drawn) [Example 1] , assay on human PAD4 (hPAD4) (Homo sapiens (Human)), is 6.55
